Molecular target: cMAGL (Macaca fascicularis, UniProt A0A2K5V664)
Sequence (A0A2K5V664 11-297): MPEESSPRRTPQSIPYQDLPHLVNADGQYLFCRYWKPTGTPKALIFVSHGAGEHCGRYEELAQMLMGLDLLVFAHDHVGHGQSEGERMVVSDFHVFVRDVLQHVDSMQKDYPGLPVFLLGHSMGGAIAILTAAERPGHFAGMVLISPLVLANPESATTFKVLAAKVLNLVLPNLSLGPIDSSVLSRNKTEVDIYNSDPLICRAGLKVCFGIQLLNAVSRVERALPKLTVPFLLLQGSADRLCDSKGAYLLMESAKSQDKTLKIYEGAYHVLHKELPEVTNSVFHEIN
Test: Native MS (RapidFire) 2-AG substrate assay, purified cynomolgus monkey MAGL
Assay type: biochemical
Conditions: purified cynomolgus monkey MAGL, native MS substrate assay; read-out: IC50 cMAGL
Property measured: pIC50
Numbers only, as −log10 of the molar value.

Here's what some known entries look like.
| Compound | pIC50 |
| --- | --- |
| O=C(N1CC2(CC(CC3=C4C=CC(c5ccc[nH]5)=[N+]4[B-](F)(F)n4cccc43)C2)C1)N1CC2(CC(n3cnc(C4CC4)n3)C2)C1 [Compound 5a] | 9.11 |
| O=C(OC(C(F)(F)F)C(F)(F)F)N1CC2(CC(CC3=C4C=CC=[N+]4[B-](F)(F)n4cccc43)C2)C1 [Compound 2] | 9.62 |
| O=C1NC2(CO1)CN(C(=O)N1CC3(CCC(CC4=C5C=CC=[N+]5[B-](F)(F)n5cccc54)CC3)C1)C2 [Compound 3] | 8.41 |
| O=C(O[C@H](CO)C(F)(F)F)N1CC2(CC(CC3=C4C=CC=[N+]4[B-](F)(F)n4cccc43)C2)C1 [Compound 1] | 9.06 |

Return reported pIC50 values for all items listed beneath this line.
1. O=C(OC(C(F)(F)F)C(F)(F)F)N1CC2(CC(CC3=C4C=CC(c5ccc[nH]5)=[N+]4[B-](F)(F)n4cccc43)C2)C1 [Compound 2a]
2. O=C1CO[C@H]2CCN(C(=O)N3CC4(CC(CC5=C6C=CC=[N+]6[B-](F)(F)n6cccc65)C4)C3)C[C@H]2N1 [Compound 4]
3. O=C(O[C@H](CO)C(F)(F)F)N1CC2(CC(CC3=C4C=CC(c5ccc[nH]5)=[N+]4[B-](F)(F)n4cccc43)C2)C1 [Compound 1a]

1: 9.20; 2: 8.94; 3: 9.40

----------
Biological target: PDE3B (h) (Homo sapiens)
Sequence (Q13370 whole entry): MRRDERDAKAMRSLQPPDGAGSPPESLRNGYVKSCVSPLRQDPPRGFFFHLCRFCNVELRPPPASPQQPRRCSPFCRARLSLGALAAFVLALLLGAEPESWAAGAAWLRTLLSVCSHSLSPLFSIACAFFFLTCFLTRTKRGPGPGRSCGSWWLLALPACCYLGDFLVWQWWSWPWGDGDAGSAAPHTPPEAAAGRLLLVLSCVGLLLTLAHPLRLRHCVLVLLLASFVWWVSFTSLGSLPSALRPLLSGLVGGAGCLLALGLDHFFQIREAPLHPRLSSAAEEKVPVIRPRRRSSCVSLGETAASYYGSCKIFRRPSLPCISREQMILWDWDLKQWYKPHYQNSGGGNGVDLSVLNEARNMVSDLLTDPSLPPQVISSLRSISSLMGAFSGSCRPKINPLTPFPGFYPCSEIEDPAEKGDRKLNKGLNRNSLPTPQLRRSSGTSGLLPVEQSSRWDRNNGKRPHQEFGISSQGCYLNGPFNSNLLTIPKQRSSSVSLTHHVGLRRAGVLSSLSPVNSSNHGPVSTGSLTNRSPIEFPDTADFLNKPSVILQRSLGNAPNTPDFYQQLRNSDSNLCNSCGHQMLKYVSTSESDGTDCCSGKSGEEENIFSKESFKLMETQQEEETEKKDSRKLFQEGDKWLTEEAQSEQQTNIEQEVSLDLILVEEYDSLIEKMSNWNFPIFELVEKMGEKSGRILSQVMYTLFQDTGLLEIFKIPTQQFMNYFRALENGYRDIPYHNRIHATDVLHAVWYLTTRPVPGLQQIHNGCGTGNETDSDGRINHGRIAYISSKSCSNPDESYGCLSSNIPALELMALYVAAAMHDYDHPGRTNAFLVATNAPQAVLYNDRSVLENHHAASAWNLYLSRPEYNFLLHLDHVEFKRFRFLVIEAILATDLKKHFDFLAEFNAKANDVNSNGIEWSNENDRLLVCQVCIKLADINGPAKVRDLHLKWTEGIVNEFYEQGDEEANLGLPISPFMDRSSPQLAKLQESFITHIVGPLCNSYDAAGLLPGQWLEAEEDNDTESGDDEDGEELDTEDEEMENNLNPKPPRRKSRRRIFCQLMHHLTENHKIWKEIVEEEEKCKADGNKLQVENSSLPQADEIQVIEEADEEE
Experiment: PDE3B (h)
Conditions: read-out: Inhibition PDE3B (h)
Property measured: inhibition at 10 µM (%)
One number for each entry, in %.

| Molecule | inhibition at 10 µM, % |
| --- | --- |
| O=C(N1CC2(CC(CC3=C4C=CC=[N+]4[B-](F)(F)n4cccc43)C2)C1)N1CC2(CC(n3cnc(C4CC4)n3)C2)C1 [Compound 5] | 10.7 |
| O=C(O[C@H](CO)C(F)(F)F)N1CC2(CC(CC3=C4C=CC=[N+]4[B-](F)(F)n4cccc43)C2)C1 [Compound 1] | 15.9 |
| O=C1CO[C@H]2CCN(C(=O)N3CC4(CC(CC5=C6C=CC(c7ccc[nH]7)=[N+]6[B-](F)(F)n6cccc65)C4)C3)C[C@H]2N1 [Compound 4a] | 13 |
| O=C(OC(C(F)(F)F)C(F)(F)F)N1CC2(CC(CC3=C4C=CC=[N+]4[B-](F)(F)n4cccc43)C2)C1 [Compound 2] | 6.3 |

Could you now look at the following molecule, please?
Given the entry O=C(OC(C(F)(F)F)C(F)(F)F)N1CC2(CC(CC3=C4C=CC(c5ccc[nH]5)=[N+]4[B-](F)(F)n4cccc43)C2)C1 [Compound 2a] , report its measured inhibition at 10 µM.
12.6

----------
Molecular target: GR (h) (Homo sapiens, UniProt P04150)
Sequence (P04150 1-777): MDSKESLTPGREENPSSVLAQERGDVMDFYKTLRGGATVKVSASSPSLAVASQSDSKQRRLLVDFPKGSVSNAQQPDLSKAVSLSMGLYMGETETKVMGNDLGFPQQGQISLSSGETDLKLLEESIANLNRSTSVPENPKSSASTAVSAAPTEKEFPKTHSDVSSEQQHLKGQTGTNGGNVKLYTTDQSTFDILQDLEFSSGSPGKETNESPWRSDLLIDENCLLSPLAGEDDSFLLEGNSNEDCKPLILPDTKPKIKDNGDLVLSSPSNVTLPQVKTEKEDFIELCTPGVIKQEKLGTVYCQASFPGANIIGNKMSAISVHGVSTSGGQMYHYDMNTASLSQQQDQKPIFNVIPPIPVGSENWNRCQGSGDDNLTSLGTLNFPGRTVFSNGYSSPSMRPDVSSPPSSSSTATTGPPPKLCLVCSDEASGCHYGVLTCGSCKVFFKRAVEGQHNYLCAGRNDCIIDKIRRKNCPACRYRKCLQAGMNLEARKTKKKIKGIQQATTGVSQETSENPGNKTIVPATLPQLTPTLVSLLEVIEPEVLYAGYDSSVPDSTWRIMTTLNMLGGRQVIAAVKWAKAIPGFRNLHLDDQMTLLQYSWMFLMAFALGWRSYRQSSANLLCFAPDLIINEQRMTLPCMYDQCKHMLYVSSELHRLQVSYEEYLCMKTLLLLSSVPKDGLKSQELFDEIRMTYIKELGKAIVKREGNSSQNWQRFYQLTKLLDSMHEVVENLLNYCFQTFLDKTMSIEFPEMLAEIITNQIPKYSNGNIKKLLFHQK
Assay: GR (h) (agonist radioligand)
Details: read-out: Inhibition GR (h) (agonist radioligand)
Assign inhibition at 10 µM to each entry below.
Give bare numbers, in %.

Here's what some known entries look like.
| Molecule | Readout number |
| --- | --- |
| O=C(O[C@H](CO)C(F)(F)F)N1CC2(CC(CC3=C4C=CC=[N+]4[B-](F)(F)n4cccc43)C2)C1 [Compound 1] | 13.9 |
| O=C(N1CC2(CC(CC3=C4C=CC=[N+]4[B-](F)(F)n4cccc43)C2)C1)N1CC2(CC(n3cnc(C4CC4)n3)C2)C1 [Compound 5] | 17.1 |
| O=C(OC(C(F)(F)F)C(F)(F)F)N1CC2(CC(CC3=C4C=CC(c5ccc[nH]5)=[N+]4[B-](F)(F)n4cccc43)C2)C1 [Compound 2a] | 26.3 |
| O=C1CO[C@H]2CCN(C(=O)N3CC4(CC(CC5=C6C=CC(c7ccc[nH]7)=[N+]6[B-](F)(F)n6cccc65)C4)C3)C[C@H]2N1 [Compound 4a] | 48.1 |

Could you now look at the following molecule, please?
Given the entry O=C(OC(C(F)(F)F)C(F)(F)F)N1CC2(CC(CC3=C4C=CC=[N+]4[B-](F)(F)n4cccc43)C2)C1 [Compound 2] , report its measured inhibition at 10 µM.
9.1
